# target.desc: h-GABA-A α5β3γ2 (Homo sapiens (Human), UniProt P18507+P31644)
# Sequence (P31644 32-462): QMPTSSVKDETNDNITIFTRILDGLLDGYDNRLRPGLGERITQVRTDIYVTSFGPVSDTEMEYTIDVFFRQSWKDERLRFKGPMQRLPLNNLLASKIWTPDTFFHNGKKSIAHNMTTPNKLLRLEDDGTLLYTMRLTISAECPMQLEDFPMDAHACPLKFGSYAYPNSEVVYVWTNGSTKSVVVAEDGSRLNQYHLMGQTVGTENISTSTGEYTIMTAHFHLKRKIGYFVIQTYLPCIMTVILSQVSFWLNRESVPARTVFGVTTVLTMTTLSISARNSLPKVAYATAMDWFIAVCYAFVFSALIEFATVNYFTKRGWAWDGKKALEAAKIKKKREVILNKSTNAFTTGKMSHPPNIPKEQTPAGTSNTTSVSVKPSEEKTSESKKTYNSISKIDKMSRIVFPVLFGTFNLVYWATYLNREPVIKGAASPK
# Sequence (P28472 26-473 partner): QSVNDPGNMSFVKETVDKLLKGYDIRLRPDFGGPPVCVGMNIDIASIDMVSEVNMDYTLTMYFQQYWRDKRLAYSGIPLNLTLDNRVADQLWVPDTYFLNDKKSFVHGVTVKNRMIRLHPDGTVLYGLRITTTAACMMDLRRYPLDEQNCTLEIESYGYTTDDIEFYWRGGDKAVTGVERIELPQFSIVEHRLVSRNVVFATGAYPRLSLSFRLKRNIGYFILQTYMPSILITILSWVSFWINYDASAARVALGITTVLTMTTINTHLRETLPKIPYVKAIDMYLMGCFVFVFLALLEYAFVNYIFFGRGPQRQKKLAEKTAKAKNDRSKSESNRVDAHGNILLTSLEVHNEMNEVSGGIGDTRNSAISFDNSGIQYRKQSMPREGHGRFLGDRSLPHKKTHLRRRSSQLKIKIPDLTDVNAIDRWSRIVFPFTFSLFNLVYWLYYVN
# Sequence (P18507 40-475): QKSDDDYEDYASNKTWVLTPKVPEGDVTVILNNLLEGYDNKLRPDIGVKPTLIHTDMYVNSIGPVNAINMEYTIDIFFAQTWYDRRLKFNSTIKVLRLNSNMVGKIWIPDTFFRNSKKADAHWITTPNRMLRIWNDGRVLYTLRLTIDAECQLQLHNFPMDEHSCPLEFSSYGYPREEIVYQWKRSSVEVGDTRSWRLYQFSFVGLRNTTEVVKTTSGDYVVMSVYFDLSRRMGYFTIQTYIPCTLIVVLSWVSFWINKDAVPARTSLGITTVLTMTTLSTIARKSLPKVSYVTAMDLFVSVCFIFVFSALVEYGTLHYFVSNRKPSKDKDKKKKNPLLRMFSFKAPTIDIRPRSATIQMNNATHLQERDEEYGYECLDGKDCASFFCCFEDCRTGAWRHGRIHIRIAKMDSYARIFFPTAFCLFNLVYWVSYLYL
# assay.comment: Two-electrode voltage clamp electrophysiology in Xenopus oocytes expressing GABAA receptors, modulation of GABA EC20 current
# Format: cell-based
# condition.summary: Table 1; GABA at EC20, test compound at approx. 30 fold its Ki, Xenopus oocytes
# Protocol: Xenopus laevis oocytes at maturation stages V-VI were used for the expression of cloned mRNA encoding GABAA receptor subunits. Oocytes ready for RNA micro-injection were bought from Ecocyte, Castrop-Rauxel, Germany and stored in modified Barth's medium (composition in mM: NaCl 88, KCl 1, NaHCO3 2.4, HEPES 10, MgSO4 0.82, CaNO3 0.33, CaCl2 0.33, pH=7.5) at 20° C. until the experiment. […]
Give measured Fold increase h-GABA-A α5β3γ2 oocyte for each item. Keep answers brief.
One number for each entry.

Cc1ccc(-c2noc(C)c2COc2ccc(C(=O)N[C@@H]3CC[C@@H](OCC(F)F)C3)nn2)cn1 : 1.6
Cc1ccc(-c2noc(C)c2COc2ccc(C(=O)N[C@H]3C[C@H](OCC(F)F)C3)nn2)cn1 : 1.6
Cc1ccc(-c2noc(C)c2COc2ccc(C(=O)NC3CCOCC3)cn2)nn1 : 1.2
Cc1ccc(-c2noc(C)c2COc2ccc(C(=O)N[C@@]3(C)CCOC3)nn2)cn1 : 1.8
CO[C@@H]1CC[C@@H](NC(=O)c2ccc(OCc3c(-c4ccc(C)nc4)noc3C)nn2)C1 (racemic) : 1.7
Cc1ccc(-c2noc(C)c2COc2cnc(C(=O)NC3CCC(F)(F)CC3)cn2)cn1 : 2.2

Batch request: Fold increase h-GABA-A α5β3γ2 oocyte for each of the following compounds.
1. Cc1ccc(-c2noc(C)c2COc2cnc(C(=O)NC3CCS(=O)(=O)CC3)cn2)cn1
2. Cc1onc(-c2ccc(Cl)nc2)c1COc1ccc(C(=O)NC2(C)COC2)nn1

Reply:
[2.3, 1.6]
